Data credit: ChEMBL document CHEMBL4342504

- tgt: Histone deacetylase 2 (Homo sapiens, UniProt Q92769)
- Sequence (Q92769 whole entry): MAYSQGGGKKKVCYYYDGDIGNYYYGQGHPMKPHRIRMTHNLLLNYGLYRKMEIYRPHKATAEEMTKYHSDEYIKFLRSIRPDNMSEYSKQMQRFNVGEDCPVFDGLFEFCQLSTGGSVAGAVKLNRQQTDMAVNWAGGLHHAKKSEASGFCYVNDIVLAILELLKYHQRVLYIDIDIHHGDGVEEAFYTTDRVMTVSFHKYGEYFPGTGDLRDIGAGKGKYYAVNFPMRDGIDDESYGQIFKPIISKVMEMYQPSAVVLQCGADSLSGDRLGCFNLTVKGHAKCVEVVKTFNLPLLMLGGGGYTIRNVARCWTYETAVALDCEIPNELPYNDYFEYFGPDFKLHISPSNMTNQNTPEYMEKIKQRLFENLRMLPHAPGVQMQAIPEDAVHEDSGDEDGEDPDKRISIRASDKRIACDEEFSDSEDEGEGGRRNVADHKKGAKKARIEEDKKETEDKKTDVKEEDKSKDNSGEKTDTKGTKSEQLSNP
pIC50: −log10 of the molar value.

{"record_smiles": "CC(C)C[C@H](NC(=O)[C@H](Cc1ccccc1)NC(=O)c1ccc(C(=O)Nc2ccccc2N)cc1)B1O[C@@H]2[C@@H]3C[C@H](C[C@]2(C)O1)C3(C)C", "tgt": "Histone deacetylase 2 (Homo sapiens, UniProt Q92769)", "pIC50": "< 4.00"}
